Source listed as patent US12016943B2.

assay: Assessment of coloration of deodorant or antiperspirant formulations containing perfuming ingredients with or without Haloscent D; assay type: physicochemical; parameters: key: CO: color; COYE: yelow color; VSCOYE: very slight yellow color; SCOYE: slight yellow color; VCOYE: very yellow color; NC: no color; DECO: decoloration; CL: cloud; VCL: very cloud; WH: white; VCOBR: very brown color; COPI: ping color; conditions: DEO STICK, perfuming ingredient 0.5 wt %; 45° C.; after 15 days
measure-name: Coloration of deodorant stick

molecule | recorded-value
CCC(=O)OCC(=O)O[C@@H](C)[C@@H]1CCCC(C)(C)C1 [ROMANDOLIDE] | NC
c1ccc2[nH]ccc2c1 | SCOYE
CC(C)=CCCC(C)CCO (racemic) [(+−)-3,7-DIMETHYL-6-OCTEN-1-OL] | NC
C=C(CC)CCCC(C)(C)O | NC
CC(C)=CCC/C(C)=C/CO [(E)-3,7-DIMETHYL-2,6-OCTADIEN-1-OL] | NC
CC(C)c1ccc2c(c1)OCC(=O)CO2 | VCOBR
O=C1CC/C=C\CCCCCCCCCC1 [EXALTENONE, (Z)-4-CYCLOPENTADECEN-1-ONE] | NC
CCCCCOC(=O)c1ccccc1O [AMYLE SALICYLATE, PENTYL 2-HYDROXYBENZOATE] | NC

* * *

assay: Assessment of coloration of deodorant or antiperspirant formulations containing perfuming ingredients with or without Haloscent D; type: physicochemical; set-up: key: CO: color; COYE: yelow color; VSCOYE: very slight yellow color; SCOYE: slight yellow color; VCOYE: very yellow color; NC: no color; DECO: decoloration; CL: cloud; VCL: very cloud; WH: white; VCOBR: very brown color; COPI: ping color; conditions: DEO ROLL-ON + Haloscent D 0.5 wt %, perfuming ingredient 0.5 wt %; 3° C.; after 15 days
measure-name: Coloration of deodorant roll-on

molecule | recorded-value
CCCCCCCCCCCCSC(C)CC(=O)C1C(C)C=CCC1(C)C (stereo not drawn) | NC
CC(C)=CCC/C(C)=C/CO [(E)-3,7-DIMETHYL-2,6-OCTADIEN-1-OL] | NC
CCC(=O)OCC(=O)O[C@@H](C)[C@@H]1CCCC(C)(C)C1 [ROMANDOLIDE] | VCL
c1ccc2[nH]ccc2c1 | NC
CC(C)c1ccc2c(c1)OCC(=O)CO2 | NC
C=C(CC)CCCC(C)(C)O | NC
O=C1CC/C=C\CCCCCCCCCC1 [EXALTENONE, (Z)-4-CYCLOPENTADECEN-1-ONE] | WH
CC(C)=CCCC(C)CCO (racemic) [(+−)-3,7-DIMETHYL-6-OCTEN-1-OL] | NC
CCCCCOC(=O)c1ccccc1O [AMYLE SALICYLATE, PENTYL 2-HYDROXYBENZOATE] | WH

* * *

Test: Assessment of coloration of deodorant or antiperspirant formulations containing perfuming ingredients with or without Haloscent D
Format: physicochemical
Set-up: key: CO: color; COYE: yelow color; VSCOYE: very slight yellow color; SCOYE: slight yellow color; VCOYE: very yellow color; NC: no color; DECO: decoloration; CL: cloud; VCL: very cloud; WH: white; VCOBR: very brown color; COPI: ping color
Conditions: DEO ROLL-ON + Haloscent D 0.5 wt %, perfuming ingredient 0.5 wt %; 45° C.; after 15 days
Description: Preparation of an Antiperspirant Spray Formulation: Using a high speed stirrer, Silica (Table 1) and Quaternium-18-Hectorite (Table 1) were added to the Isopropyl miristate (Table 1) and Cyclomethicone mixture (Table 1). […] Assessment of Coloration in the Perfuming Ingredients: To set of deodorant or antiperspirant formulations of point a) to e) has been prepared. […] All formulations were evaluated in comparison with unperfumed deodorant or antiperspirant formulation. […]

molecule | Coloration of deodorant roll-on
CC(C)=CCC/C(C)=C/CO [(E)-3,7-DIMETHYL-2,6-OCTADIEN-1-OL] | NC
CC(C)=CCCC(C)CCO (racemic) [(+−)-3,7-DIMETHYL-6-OCTEN-1-OL] | NC
CCCCCCCCCCCCSC(C)CC(=O)C1C(C)C=CCC1(C)C (stereo not shown) [Haloscent ® D] | NC
C=C(CC)CCCC(C)(C)O [2-METHYL-6-METHYLIDENEOCTAN-2-OL] | NC
O=C1CC/C=C\CCCCCCCCCC1 [EXALTENONE, (Z)-4-CYCLOPENTADECEN-1-ONE] | CL
CCCCCOC(=O)c1ccccc1O [AMYLE SALICYLATE, PENTYL 2-HYDROXYBENZOATE] | VCL
CC(C)c1ccc2c(c1)OCC(=O)CO2 [CALONE] | CO
